Kindly find below IC50 information for Fibroblast growth factor receptor 2 (Homo sapiens) taken from the literature.

Here is how some compounds turned out for IC50.
CS(=O)(=O)Nc1cc(-c2ccc(F)cc2F)cc(-c2cnn3cc(-c4ncn(C5CCOCC5)n4)ccc23)c1 :: 287 nM
COc1cc(OC)c(F)c(N2Cc3cnc(NCc4cnn(C)c4)cc3C3(CC3)C2=O)c1F :: < 100 nM
COCCNc1cc(NC(=O)N2CCCc3cc(CO)c(C=O)nc32)ncc1C#N :: > 10000 nM
Cn1cc(-c2ccc3c(-c4cc(NCC(O)CO)cc(-c5ccc(F)cc5F)c4)cnn3c2)cn1 (stereo not shown) :: 5.59 nM
C=CC(=O)NCc1cc2c(cn1)CN(c1c(F)c(OC)cc(OC)c1F)C(=O)N2Cc1cccnc1 :: > 200 nM

Query: So what does the record say about IC50 for `COc1cc(OC)c(Cl)c(-c2ncc3c(-c4ccc5c(c4)CCO5)n[nH]c3n2)c1Cl` ?
Reply: < 100 nM

Query: Moving on to COc1cc(OC)c(Cl)c(-c2ncc3c(-c4ccc5c(c4)CCC(C(=O)N(C)C)O5)n[nH]c3n2)c1Cl (stereo not shown)
Reply: < 100 nM

Query: Moving on to `COc1cc(OC)cc(N(CCNC(C)C)c2ccc3nnc(-c4cnn(C)c4)cc3c2)c1`
Reply: 4.3 nM

Query: Moving on to COc1cc(OC)c(F)c(-c2ncc3c(-c4cnn(C(C)C#N)c4)n[nH]c3n2)c1F (stereo not shown)
Reply: < 100 nM

Query: Moving on to `COc1cc(OC)c(F)c(-c2cc3[nH]nc(-c4ccnc(N5CCN(C)CC5)c4)c3cn2)c1F`
Reply: < 100 nM

Query: Moving on to `Cc1ncn(-c2ccc3c(-c4cc(NS(=O)(=O)C5CC5)cc(-c5ccc(F)cc5F)c4)cnn3c2)n1`
Reply: 312 nM

Query: Moving on to N#Cc1ccc(NC(=O)N2CCC(O)c3ccc(C=O)nc32)nc1 (racemic)
Reply: > 10000 nM

Query: Moving on to `COc1cc(OC)c(F)c(N2Cc3cnc(Nc4cccnc4)cc3C3(CC3)C2=O)c1F`
Reply: < 100 nM

====

Kindly find below pIC50 information for Fibroblast growth factor receptor 2 (Homo sapiens, UniProt P21802) taken from the literature.
pIC50: −log10 of the molar value.

CS(=O)(=O)Nc1cc(-c2ccc(F)cc2F)cc(-c2cnn3cc(-c4ncn(CCO)n4)ccc23)c1 :: 6.59
C=CC(=O)NCc1cc2c(cn1)CN(c1c(F)c(OC)cc(OC)c1F)C(=O)N2C1CCC1 :: < 6.70
CCn1cc(-c2c(N)ncc3c2N(C)C(=O)N(c2c(F)c(OC)cc(OC)c2F)C3)cn1 :: > 7.00
COc1cc(OC)c(F)c(-c2cc3[nH]nc(-c4cnn(C)c4)c3cn2)c1F :: > 7.00
COc1cc(N2CCN(C)CC2)ccc1Nc1ncc(C)c(Nc2ccc3cn[nH]c3c2)n1 :: < 6.00

Query: Recall the recorded pIC50 for `CCN1C(=O)N(c2c(F)c(OC)cc(OC)c2Cl)Cc2cnc3c(c21)CC(=O)N3` with Fibroblast growth factor receptor 2 (Homo sapiens, UniProt P21802) and state it.
Reply: > 7.00

Query: Moving on to `COc1cc(OC)c(F)c(N2Cc3cnc(N)c(-c4cnn(C5CCNCC5)c4)c3N(C)C2=O)c1F`
Reply: > 7.00

Query: Moving on to `CC(C)Oc1cc(NC(=O)N(C)c2ccc(CN3CCN(C)CC3)c(C=O)n2)ncc1C#N`
Reply: < 5.00

Query: Moving on to `N#Cc1cnc(NC(=O)N2CCCc3ccc(C=O)nc32)nc1`
Reply: < 5.00

Query: Moving on to `COc1cc(OC)c(F)c(N2Cc3cnc(NC[C@@H]4CCCO4)cc3C3(CC3)C2=O)c1F`
Reply: > 7.00

Query: Moving on to `COc1cc(OC)c(F)c(-c2cc3[nH]nc(-c4ccc5c(c4)CN(CC(F)(F)F)C5=O)c3cn2)c1F`
Reply: > 7.00

Query: Moving on to `COc1cc(OC)c(F)c(-c2ncc3c(-c4ccc5c(c4)CCNC5=O)n[nH]c3n2)c1F`
Reply: > 7.00

Query: Moving on to `COc1cc(OC)c(F)c(N2Cc3cnc(N)c(-c4ccncc4)c3N(C)C2=O)c1F`
Reply: > 7.00

Query: Moving on to `C=CC(=O)Nc1cc(N2CCN(CC(F)(F)F)CC2)ccc1C(=O)Nc1cc(CCc2cc(OC)cc(OC)c2)n[nH]1`
Reply: 8.43

Query: Moving on to `COC[C@@H](C)Oc1cc(NC(=O)N2CCCc3cc(CN4CCN(C)CC4=O)c(C=O)nc32)ncc1C#N`
Reply: < 5.00
